Test system: MDA-MB-231 breast
testDescription: NCI tumour cell line growth inhibition, 48 h
measurementName: log10 of TGI (log10 of the value in µM)

# molecule, log10 of TGI
rows = [
    ("O=P1(C(O)c2ccccc2)N(Cc2ccccc2)[C@@H]2CCCC[C@H]2N1Cc1ccccc1 (stereo partly specified)", 1.73),
    ("CC1=C(C(=O)OC(C)(C)C)C(c2ccc([N+](=O)[O-])cc2)C(C(=O)OC(C)(C)C)=C(C)N1", 1.62),
    ("O=C(COC(=O)[C@H](C[Se][Se]C[C@H](NC(=O)c1ccc(Br)cc1F)C(=O)OCC(=O)c1ccc(F)cc1)NC(=O)c1ccc(Br)cc1F)c1ccc(F)cc1", 0.61),
    ("Cc1c(Cl)cc(C(C)(C)C)c(O)c1Cc1c(C)c(Cl)cc(C(C)(C)C)c1O", 0.54),
    ("CN1Cc2c(ccc3c2OCO3)[C@@H]2[C@H](O)Cc3cc4c(cc3[C@@H]21)OCO4", 1.39),
]

----------
Reported TGI values for a set of compounds
System: OVCAR-5 ovarian
testDescription: NCI tumour cell line growth inhibition, 48 h

# compound, experimentalTarget, TGI
measured = [
    ("C(/Cc1ccc2c(c1)OCO2)=N\\NC1=NCCCCN1", "OVCAR-5 ovarian", "> 100 µM"),
    ("CN(C)c1ccc(/C=C2\\CCCCCC2=O)cc1", "OVCAR-5 ovarian", "> 100 µM"),
    ("N#Cc1c(N)n(-c2nc3ccccc3s2)c(=O)c2cc([N+](=O)[O-])ccc12", "OVCAR-5 ovarian", "> 79 µM"),
    ("O=c1cccccc1[O-].O=c1cccccc1[O-].O=c1cccccc1[O-].[Dy+3]", "OVCAR-5 ovarian", "> 100 µM"),
    ("Clc1cc2ncn(C3CCCO3)c2cc1Cl (configuration not stated)", "OVCAR-5 ovarian", "> 100 µM"),
    ("COc1ccc(OC)c2c(Nc3ccc(S(=O)(=O)O)c4cc(S(=O)(=O)O)cc(S(=O)(=O)O)c34)cc(C)nc12", "OVCAR-5 ovarian", "> 100 µM"),
    ("Nc1nc(Nc2cc(F)c(Cl)c(F)c2)cc(=O)[nH]1", "OVCAR-5 ovarian", "> 100 µM"),
    ("O=C1Cc2c(-c3ccccc3)cc(-c3ccc(Cl)cc3)nc2-c2ccccc2N1", "OVCAR-5 ovarian", "> 83.7 µM"),
    ("CC(=O)OCC1OC(OC(C)=O)C(NC#N)C(OC(C)=O)C1OC(C)=O (configuration not stated)", "OVCAR-5 ovarian", "> 100 µM"),
    ("CN1C/C(=C\\c2ccco2)c2nc(N)nc(-c3ccco3)c2C1", "OVCAR-5 ovarian", "> 100 µM"),
    ("O=C1c2sccc2C(=O)c2c(CO)csc21", "OVCAR-5 ovarian", "> 53 µM"),
    ("COC(=O)N/N=C(\\c1nc2ccc(Cl)cc2[nH]c1=O)C(O)c1ccc([N+](=O)[O-])cc1 (configuration not stated)", "OVCAR-5 ovarian", "> 100 µM"),
]

----------
Test system: UO-31 renal
testDescription: NCI tumour cell line growth inhibition, 48 h

# molecule, TGI
rows = [
    ("Cc1cccc(Cc2cnc(NC(=O)CCCOc3ccc(Cl)cc3)s2)c1", "> 100 µM"),
    ("CC1=CC(=O)N2[C@H](OC[C@@H]2C(C)C)O1", "> 100 µM"),
    ("N#Cc1c(N)n(-c2nc3ccccc3s2)c(=O)c2cc([N+](=O)[O-])ccc12", "> 79.2 µM"),
    ("Cn1c(=O)c(Oc2ccc(F)cc2F)cc2cnc(NC3CCC(O)CC3)nc21 (stereo not given)", "> 25 µM"),
    ("COc1ccc(Cl)cc1Nc1nc(C(F)(F)F)ccc1C(=O)N/N=C/c1ccc(Cl)cc1", "> 100 µM"),
]

----------
Reported TGI values for a set of molecules
System: HOP-92 NSCLC
testDescription: NCI tumour cell line growth inhibition, 48 h
measurementName: TGI (µM)

# molecule, measurementName, censoringQualifier, assayResult
data = [
    ("CC(=O)Nc1ccc(C(=O)NN2C(=O)CSC2c2ccccc2)cc1 (stereo not drawn)", "TGI", ">", 100),
    ("CN(C)C(=O)c1cc2cnc(Nc3ccc(N4CCNCC4)cn3)nc2n1C1CCCC1", "TGI", "=", 61.6),
    ("CC(C)(CCc1nc2ccccc2[nH]1)C(=O)O", "TGI", ">", 100),
    ("O=C1c2sccc2C(=O)c2c(CO)csc21", "TGI", "=", 26.1),
    ("CCC(=C(c1ccc(OCCN(CC)CC)cc1)c1ccc(OCCN(CC)CC)cc1)c1ccc(Cl)cc1", "TGI", "=", 1.18),
    ("CCCCCCCCCCCCCCCC(=O)OCC(COP(=O)(O)OCCNC(=O)CCSSc1ccccn1)OC(=O)CCCCCCCCCCCCCCC (stereo not drawn)", "TGI", ">", 100),
    ("Cn1nc(-c2ccccc2)c(C(=O)/C=C/c2ccccc2)c(N2CCCC2)c1=O", "TGI", "=", 6.23),
    ("COC(=O)C1=C(C)N(NC(=O)Nc2ccccc2)C2(N)N(NC(=O)Nc3ccccc3)C(C)=C(C(=O)OC)C12C(=O)OC (stereo not drawn)", "TGI", ">", 100),
]

----------
System: A549 NSCLC
testDescription: NCI tumour cell line growth inhibition, 48 h
Reported TGI values for a set of compounds

# compound, TGI
records = [
    ("COc1ccc(OC)c2c(Nc3ccc(S(=O)(=O)O)c4cc(S(=O)(=O)O)cc(S(=O)(=O)O)c34)cc(C)nc12", "> 100 µM"),
    ("CC(=O)CC(=O)N1CCOC1=O", "> 10 µM"),
    ("CC1SCCc2nc3ccccc3n21 (stereo not drawn)", "> 100 µM"),
]

----------
Test system: HCT-15 colon
testDescription: NCI tumour cell line growth inhibition, 48 h
Reported TGI values for a set of compounds

# smilesEntry, experimentalTarget, TGI
measured = [
    ("Cc1nc(-c2cccnc2)sc1C(=O)/C=C/c1ccc(Cl)cc1Cl", "HCT-15 colon", "> 100 µM"),
    ("COc1ccc(-c2ccc(/C=N/n3c(COc4ccc(Cl)c(C)c4)nn(CN4CCOCC4)c3=S)o2)c([N+](=O)[O-])c1", "HCT-15 colon", "> 100 µM"),
    ("FC(F)(Sc1nc2ccccc2[nH]1)c1nc2ccccc2o1", "HCT-15 colon", "> 100 µM"),
]

----------
Reported TGI values for a set of molecules
Tested on: OVCAR-5 ovarian
testDescription: NCI tumour cell line growth inhibition, 48 h

# molecule, experimentalTarget, TGI
rows = [
    ("O=C1C[C@@]23CCC4(CC2=CCC[C@H]3O1)OCCO4", "OVCAR-5 ovarian", "> 100 µM"),
    ("NS(=O)(=O)C1CCCCC1C(=O)NNC(=O)C(=O)Nc1nc(=S)[nH][nH]1 (stereo not given)", "OVCAR-5 ovarian", "> 100 µM"),
    ("O=C(Nc1cccc(C(F)(F)F)c1)Nc1ccc(OCc2nnc(-c3ccccc3)o2)c(F)c1", "OVCAR-5 ovarian", "> 100 µM"),
    ("CCOP(=O)(OCC)/C(C#N)=C(\\C)c1ccco1", "OVCAR-5 ovarian", "> 10 µM"),
    ("O=C(CCc1ccccc1)NCCc1ccc(O)c(O)c1", "OVCAR-5 ovarian", "> 31.6 µM"),
    ("Nc1ccc(N)c2c1C(=O)c1cccc([N+](=O)[O-])c1C2=O", "OVCAR-5 ovarian", "> 100 µM"),
    ("COc1cc(O)c2c(=O)c(O)c(-c3ccc(O)c(O)c3)oc2c1", "OVCAR-5 ovarian", "47.8 µM"),
    ("COc1ccc(S(=O)(=O)NCCCNc2nccc(-c3c(-c4ccc(F)cc4)nc4sccn34)n2)cc1", "OVCAR-5 ovarian", "> 100 µM"),
    ("COC(=O)/C(=C/c1ccc(OC)cc1)c1cc(OC)c(OC)c(OC)c1", "OVCAR-5 ovarian", "> 100 µM"),
    ("CO[C@@H](c1ccccc1)[C@H](O)[C@@](O)(c1ccccc1)P(=O)(OC)OC", "OVCAR-5 ovarian", "> 100 µM"),
    ("CCOC(=O)N/N=C(/N)Cc1ccc(Cl)cc1", "OVCAR-5 ovarian", "> 100 µM"),
    ("O=C(NCc1cccnc1)c1ccc([N+](=O)[O-])o1", "OVCAR-5 ovarian", "18 µM"),
    ("Oc1[nH]c2ccccc2c1N=Nc1nc(-c2ccccc2)cs1", "OVCAR-5 ovarian", "> 100 µM"),
    ("COc1cc(CC2C(=O)OCC2Cc2ccc(OC)c(OC)c2)ccc1O (stereo not given)", "OVCAR-5 ovarian", "> 100 µM"),
    ("CC1SCCc2nc3ccccc3n21 (stereo not given)", "OVCAR-5 ovarian", "> 100 µM"),
]
